Test system: Plasmodium falciparum
TEST_METHOD_NOTES: Antimalarial activity against Plasmodium falciparum expressing PKG T618Q mutant infected in human erythrocytes assessed as reduction in parasitemia incubated for 72 hrs by SYBR green I and Mitotracker deep red dye based flow cytometric analysis
Assay type: functional, organism-based
TEST_SETTINGS: Plasmodium falciparum, 72 h
Listed below: EC50 values for each entry.
Quick reminder: number only, in nM, skip the unit.

Which EC50 value belongs to CN1CCC(c2[nH]c(-c3ccc(F)cc3)c(-c3ccncc3)c2Br)CC1.Cl.Cl ? 1140

Moving on to the next molecule: C[C@@H]1C[C@H](c2cc(-c3ccncc3)c(-c3ccc(F)cc3)[nH]2)CCN1C.Cl.Cl (racemic) 900

Then CN1CCC(c2cc(-c3ccncc3)c(-c3ccc(F)cc3)[nH]2)CC1.Cl ? 1020

Now consider CN1CCC(c2cc(-c3ccncc3CO)c(-c3ccc(F)cc3)[nH]2)CC1.Cl.Cl . 6230

* * *

System: Plasmodium falciparum
TEST_METHOD_NOTES: Antimalarial activity against drug-sensitive Plasmodium falciparum 3D7 infected in human erythrocytes assessed as reduction in parasitemia incubated for 72 hrs by SYBR green I and Mitotracker deep red dye based flow cytometric analysis
Type: functional, organism-based
TEST_SETTINGS: Plasmodium falciparum, 3D7, 72 h
RECORDED_ENDPOINT: EC50

The following molecules have reported results that may help.
MOLECULE | EC50
CN1CCC(c2cc(-c3ccncc3Cl)c(-c3ccc(F)cc3)[nH]2)CC1.Cl.Cl | 460 nM
CN1CCC(c2[nH]c(-c3ccc(F)cc3)c(-c3ccncc3)c2C(N)=O)CC1.Cl.Cl | > 20000 nM
CN1CCC(c2[nH]c(-c3ccc(F)cc3)c(-c3ccncc3)c2Br)CC1.Cl.Cl | 1550 nM
C[C@H]1C[C@H](c2cc(-c3ccncc3)c(-c3ccc(F)cc3)[nH]2)CCN1C.Cl.Cl (racemic) | 380 nM
CN1CCC(c2cc(-c3ccnc(Br)c3)c(-c3ccc(F)cc3)[nH]2)CC1.Cl.Cl | 1720 nM

So what does the record say about EC50 for C[C@@H]1C[C@H](c2cc(-c3ccncc3)c(-c3ccc(F)cc3)[nH]2)CCN1C.Cl.Cl (racemic) ? 360 nM

What would you report for CN1CCC(c2cc(-c3ccncc3C#N)c(-c3ccc(F)cc3)[nH]2)CC1.Cl.Cl ? 360 nM

Try this molecule next: C[C@@H]1CN(C)CC[C@@H]1c1cc(-c2ccncc2)c(-c2ccc(F)cc2)[nH]1.Cl.Cl 50 nM

// repeat for CN1CCC(c2cc(-c3ccncc3)c(-c3ccc(F)cc3)[nH]2)CC1.Cl and report 230 nM

Another molecule: C[C@@H]1CN(C)CC[C@H]1c1cc(-c2ccncc2)c(-c2ccc(F)cc2)[nH]1.Cl.Cl (racemic) 30 nM

* * *

Test system: Plasmodium falciparum
TEST_METHOD_NOTES: Antimalarial activity against drug-sensitive Plasmodium falciparum 3D7 infected in human erythrocytes assessed as reduction in parasitemia incubated for 72 hrs by SYBR green I and Mitotracker deep red dye based flow cytometric analysis
Format: functional, organism-based
TEST_SETTINGS: Plasmodium falciparum, 3D7, 72 h
RECORDED_ENDPOINT: EC50 (µM)
Number in µM, nothing else.

MOLECULE | REPORTED
CC(=O)O.CC(O)c1c(C2CCN(C)CC2)[nH]c(-c2ccc(F)cc2)c1-c1ccncc1 (stereo not drawn) | 4.26
Cc1cnccc1-c1cc(C2CCN(C)CC2)[nH]c1-c1ccc(F)cc1.Cl.Cl | 1.36

Give Plasmodium falciparum EC50 for CCOC(=O)c1c(C2CCN(C)CC2)[nH]c(-c2ccc(F)cc2)c1-c1ccncc1.Cl.Cl 2.47
